- MEASURED_ON: T1, biotin-labeled human CD137 fused to human IgG1 Fc fragment (human, biotin-labeled)
- T1 construct: also called human CD137-Fc; biotin-human CD137-Fc; not shown: human IgG1 Fc fragment
- EXPERIMENT_DESCRIPTION: competitive ELISA on biotin-human CD137-Fc; free CD3e vs free Fc
The entries below are paired with their reported Signal decrease.
The reply should contain only the number, in %.

Input line: Given dBBDu186/L098 (antibody, V domains shown, IgG format; constant regions not specified) VH: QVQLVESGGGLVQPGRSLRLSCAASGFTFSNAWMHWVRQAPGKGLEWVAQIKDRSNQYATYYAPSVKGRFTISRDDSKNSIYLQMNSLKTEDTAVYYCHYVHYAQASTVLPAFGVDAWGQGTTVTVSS VL: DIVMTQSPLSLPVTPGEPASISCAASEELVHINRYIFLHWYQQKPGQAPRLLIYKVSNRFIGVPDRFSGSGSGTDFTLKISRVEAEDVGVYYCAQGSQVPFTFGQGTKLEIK , state its recorded Signal decrease.
Output line: 86.2

Could you now consider this next binder?
Input line: Given dBBDu193/L127 (antibody, V domains shown, IgG format; constant regions not specified; also called dBBDu_193 dBBDu.L127) VH: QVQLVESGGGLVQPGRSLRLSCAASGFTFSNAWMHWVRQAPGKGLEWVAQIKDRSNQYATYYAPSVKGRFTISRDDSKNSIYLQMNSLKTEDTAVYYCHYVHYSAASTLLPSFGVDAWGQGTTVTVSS VL: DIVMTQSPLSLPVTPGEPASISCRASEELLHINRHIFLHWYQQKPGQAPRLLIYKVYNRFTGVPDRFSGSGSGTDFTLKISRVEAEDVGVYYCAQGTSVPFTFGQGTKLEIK , state its recorded Signal decrease.
Output line: 59.4
